Reported % Signal Inhibition Average is given for each of the following binders.
# assayed_system: T1, canine OX40L, full length membrane form, expressed on HEK293 cells (canine)
# T1 chain: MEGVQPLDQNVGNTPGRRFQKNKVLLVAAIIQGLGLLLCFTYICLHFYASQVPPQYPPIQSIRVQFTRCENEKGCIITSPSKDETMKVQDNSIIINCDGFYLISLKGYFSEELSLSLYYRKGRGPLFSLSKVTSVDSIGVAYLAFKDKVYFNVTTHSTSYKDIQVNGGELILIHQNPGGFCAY
# method_description: cell-based or functional assay
Numbers only here, please. The scale is %.

Recorded % Signal Inhibition Average, per entry:
# binder, test_readout, unit_spec, recorded_measurement
measured = [
    ("PMX096 (antibody, V domains shown) VH: EVQLVESGGDLVKPGGSLRLSCVASGFTFNTYHMNWVRQAPGKGLHWVAFINSGGSDTSYADTVQGRFTISRDYAKNTLYLQMNSLRAEDTAVYYCASGYIWTHFDYWGQGTLVTVSS VL: SYVLTQLPSVSVTLRQTAHITCGGDIIGSKSVYWYQQKLGQAPVMIIYRDNNRPTGIPERFSGASSGNTATLTISGSLAEDEADYYCQVWDSRTQALFGGGTHLTVL", "% Signal Inhibition Average", "%", 50.1),
    ("PMX100 (antibody, V domains shown) VH: EVQLVESGGDLVRPGGSLRLSCVASGFTFSSYHMSWVRQAPGKGLQWVAFINSGGSSTTYADVVRGRFTISRDYAKNTLYLQMNSLRAEDTAVYYCASGSIWTHFDYWGQGTLVTVSS VL: SFVLTQLPSVSVTLRQTARITCGGDSIGSKSVYWYQQRLGQAPVLIIYRDSNRPTGIPERFSGASSGNTATLTISGALAEDEADYYCQVWDNSNKAMFGGGTHLTVL", "% Signal Inhibition Average", "%", 32.4),
    ("PMX057 (antibody, V domains shown, also called PMX57) VH: EVQLVESGGDLVKPEGSLRLSCVVSGFTFNNYGMSWVRQAPGKGLQWVAYISIDGRSTSYTDAVKGRFTISRDNAKNTLYLHINSLRTEDTAVYYCTKLGRGFTFGYWGQGTLVTVSS VL: SYVLTQLPSKNVTLKQPAHITCGGDNIGSKSVHWYQQKLGQAPALIIYYDSSRPTGIPERFSGANSGNTATLTISGALAEDEADYYCQVWDSSVSVFGGGTHLTVL", "% Signal Inhibition Average", "%", 66),
    ("PMX042 (antibody, V domains shown, also called PMX42) VH: EVQLVESGGDLVKPGGSLRLSCVASGFTFSSYHMSWVRQAPGKGLQWVAYITSGGSTTSYADAVKGRFTISRDNAKNTLYLQMDSLRADDTAVYYCASDLVLLLGGADYWGQGTLVTVSS VL: SYELTQPPSVNVTLRETAHITCGGDSIGRKYVQWIQQHPGQAPVVIIYKDYNRPTGIPERFSGANSGNTATLTISGALAEDEADYYCQVGDSGTKAVFGGGTHLTVL", "% Signal Inhibition Average", "%", 78.8),
]

Q) Name the recorded % Signal Inhibition Average for PMX104 (antibody, V domains shown) VH: EVQLVESGGDLVRPGGSLRLSCVASGFTFSNYHMSWVRQAPGKGLQWVAFINSGGTSTTYADAVRGRFTTSRDYAKNTLYLQMNSLRAEDTAVYYCTSGSIWTHFDYWGQGTLVTVSS VL: SFVLTQLPSVSVTLRQTARITCGGDIIGSKSVYWFQQKLGQAPILIIYRDDNRPTGIPERFSGASSGNTATLIISGALAEDEAHYYCQVWDSSSKAMFGGGTHLTVL .
A) 31

Q) Name the recorded % Signal Inhibition Average for PMX086 (antibody, V domains shown) VH: EVQLVESGGDLVKPGGSLRLSCVASGFTFSSYHMSWVRQAPGKGLQWVAFINSAESSTTYADAVKGRFTISRDNAKNTLYLQMNSLRAEDTAVYYCAGGYIWTHFDYWGQGTLVTVSS VL: SYVLTQLPSVSVTLRQTARITCGGDIIGSKSVYWYQQNLGQAPVLIIYRDTNRPTGIPERFSGASSGNTATLTISGALAEDEADYYCQVWDSSTSVFGGGTHLTVL .
A) 18.3

Q) Name the recorded % Signal Inhibition Average for PMX064 (antibody, V domains shown, also called PMX64) VH: EVQLVESGGDLVKPGGSLRLSCVASGFTFSSYHMSWVRQAPGKGLQWVAYITSGGITTSYADAVKGRFTISRDNAKNTLYLQMNSLRAEDTAVYYCASDLVLILGGADYWGQGTLVTVSS VL: SYELTQPPSVNVTLSETAHITCGGDSIGRKYVQWIQQNPGQAPVVIIYKDSNRPTGIPERFSGANSGNTATLTISGALAEDEADYYCQVGDSGTKAVFGGGTHLTVL .
A) 91.1

Q) Name the recorded % Signal Inhibition Average for PMX092 (antibody, V domains shown) VH: EVQLVESGGDLVKPGGSLRLSCVASGFTFNNLHMSWVRQAPGKGLQWVAFINSDGRNRNYADAVKGRVTISRDYAKNTLYLQINSLRAEDTAVYYCTGGSIWTHFDYWGQGTLVTVSS VL: SYVLTQLPSMSVTLRQTARITCEGDIIASKRVYWYQQKLGQVPVLFIYADNSRPSGIPERFSGASSGNTATLTISGALAEDEADYYCQVWDSNANSVFGGGTHLTVL .
A) 34.7

Q) Name the recorded % Signal Inhibition Average for PMX110 (antibody, V domains shown) VH: EVQLVESGGDLVRPGGSLRLSCVASGFTFSSYHMSWVRQAPGKGLQWVAFINSGGSSTTYADVVRGRFTISRDYAKNTLYLQMNSLRAEDTAVYYCASGSILTHFDYWGQGTLVTVSS VL: SFVLTQLPSVSVTLRQTARITCGGDSVGSKSVYWYQQKLGQAPVLIIYRDSNRPTGIPERFSGASSGNTATLTISGALAEDEADYYCQVWDNSNKAMFGGGTHLTVL .
A) 37.4

Q) Name the recorded % Signal Inhibition Average for PMX108 (antibody, V domains shown) VH: EVQLVESGGDLVRPGGSLRLSCVASGFTFTNYHMSWVRQAPGKGLQWVAFINSGGSSTTYTDVVRGRFTISRDYAKNTLYLQMNSLTAEDTAVYYCASGAIWTHFDHWGQGTLVTVSS VL: SFVLTQLPSVSVTLRQTARITCGGDSVGSKSVYWYQQKLGQAPVLIIYRDSNRPTGIPERFSGASSGNTATLTISGALAEDEADYYCQVWDNSNKAIFGGGTHLTVL .
A) 82.2
